Tested on: P. falciparum 3D7 trophozoites
Test: Metabolomic fingerprint profiling LC-MS
Type: cell-based, Plasmodium falciparum
Conditions: metabolite UDP-D-glucuronate, S2 Table Metabolomics
reported metric: UDP-D-glucuronate
Numbers only.

Guide cases for UDP-D-glucuronate, answers given:
{"compound": "Oc1ccccc1CNCC12CC3CC(CC(C3)C1)C2 [MMV020788]", "reported metric": "UDP-D-glucuronate", "measurement": -0.09612}
{"compound": "CCN1CCN(Cc2ccc(NC(=O)c3cc4ccc5cccnc5c4[nH]3)cc2)CC1 [MMV020548]", "reported metric": "UDP-D-glucuronate", "measurement": -0.2395}
{"compound": "O=C(NCC(c1ccsc1)N1CCCCCC1)c1ccc(C(F)(F)F)cc1 (centres unmarked) [MMV396672]", "reported metric": "UDP-D-glucuronate", "measurement": 0.1556}
{"compound": "CCCc1cc(O)c2c3c(c(=O)oc2c1)CN(C)CC3 [MMV665841]", "reported metric": "UDP-D-glucuronate", "measurement": 0.2234}
{"compound": "CCCCCCOC(=O)C1=C(C)NC(=O)NC1c1ccccc1F (centres unmarked) [MMV007686]", "reported metric": "UDP-D-glucuronate", "measurement": -0.1902}

Give measured UDP-D-glucuronate for every item shown.
1. Cc1cc(C)c2c(c1)OCN(Cc1ccccc1Cl)C2 [MMV006558]
2. Cc1cc(NCCN2CCCCC2)c2ccc3ccccc3c2n1 [MMV006203]
3. CCCc1c(CC)c(=N)c2ccccc2n1C [MMV008416]
4. CCOc1cc2c(cc1OCC)C(c1cc(OC)c(O)cc1Cl)NCC2 (centres unmarked) [MMV008956]
5. COc1ccccc1CNC(=O)CCn1c(=O)[nH]c2ccccc2c1=O [MMV665916]
6. COc1ccc(-c2c(C)nn3c(N)c(C#N)cnc23)cc1OC [MMV396797]
7. COc1ccc(C(C)=O)cc1N1C(=O)C2C(C1=O)C1(c3ccccc3)C(=O)C2(c2ccccc2)C(c2ccc(C)cc2)=C1c1ccc(C)cc1 (centres unmarked) [MMV007695]

(A)
[-0.03433, -0.09689, -0.2053, 0.2178, 0.1875, 0.1151, 0.7314]

Can you give me UDP-D-glucuronate for all of these, one by one?
1. Cc1cc(Nc2ccc(Cl)cc2)n2nc(C(F)(F)F)nc2n1 [MMV011256]
2. CN1CCN(c2ccc(Nc3c4ccccc4nc4ccccc34)cc2)CC1 [MMV006172]
3. CN(C)c1ccc(C(O)(c2ccc(N(C)C)cc2)c2ccc(N(C)C)cc2)cc1 [MMV665941]
4. COc1cccc(NC(=O)[C@H](C(C)C)n2c(=O)[nH]c3ccccc3c2=O)c1 [MMV665878]

(A)
[-0.02444, -0.2935, -0.09688, -0.6105]

The reported P. falciparum 3D7 trophozoites UDP-D-glucuronate of O=C(O)C1Cc2c([nH]c3ccccc23)C(c2ccc(Cl)cc2Cl)N1 (centres unmarked) [MMV008138] is 0.2472

----------
Tested on: P. falciparum 3D7 trophozoites
Experiment: Metabolomic fingerprint profiling LC-MS
Format: cell-based, Plasmodium falciparum
Conditions: metabolite level change after treatment
Quick rule for you: 2_3-Diphosphoglyceric acid under 0.2 gets 1.0, anything else gets 0.0.

Solved cases below.
{"substance smiles": "O=[N+]([O-])c1ccc(C=NNc2nc3ccccc3[nH]2)cc1", "group label": 1.0}
{"substance smiles": "CSc1ccccc1C(=O)Nc1nc(-c2ccccn2)cs1", "group label": 0.0}
{"substance smiles": "CCCc1c(CC)c(=N)c2ccccc2n1C", "group label": 0.0}
{"substance smiles": "Cc1ccc(-c2cc3c(SCC(=O)Nc4cc(C(F)(F)F)ccc4Cl)nccn3n2)cc1", "group label": 1.0}

(Q) Dear reviewer, please state whether `CCN(CC)CCNc1ncnc2c1[nH]c1ccc(Cl)cc12` has 2_3-Diphosphoglyceric acid strictly beneath 0.2.
(A) 1.0

----------
Test system: P. falciparum 3D7 trophozoites
Test: Metabolomic fingerprint profiling LC-MS
Type: cell-based, Plasmodium falciparum
Conditions: metabolite Octoluse Bisphosphate; S2 Table Metabolomics, change in metabolite level after compound treatment
reported metric: Octoluse Bisphosphate
Numbers only.

Consider the following illustrative entries.
{"compound": "CCOc1ccc(-c2nonc2NC(=O)c2cccc(C)c2)cc1OCC [MMV665805]", "measurement": -2.628}
{"compound": "CSc1ccccc1C(=O)Nc1nc(-c2ccccn2)cs1 [MMV001246]", "measurement": -0.02993}
{"compound": "CCN(CC)CCNc1ccnc2cc(Cl)ccc12 [MMV006087]", "measurement": 0.7357}

Next up:
Entry O=C(CSc1nccn2nc(-c3ccccc3)cc12)Nc1cc(C(F)(F)F)ccc1Cl [MMV396678] ; Octoluse Bisphosphate = -0.2508

----------
Tested on: P. falciparum 3D7 trophozoites
Assay: Metabolomic fingerprint profiling LC-MS
Assay type: cell-based, Plasmodium falciparum
Conditions: S2 Table Metabolomics; peptide PEE
The label depends only on PEE: 1.0 if it is at least -0.7, 0.0 if it is smaller.

Illustrative cases are given below, each with its answer.
{"molecule": "O=C(O)C1Cc2c([nH]c3ccccc23)C(c2ccc(Cl)cc2Cl)N1 (stereo not shown)", "group label": 1.0}
{"molecule": "CCCCCCOC(=O)C1=C(C)NC(=O)NC1c1ccccc1F (stereo not shown)", "group label": 1.0}
{"molecule": "Cc1cc(Nc2ccc(Cl)cc2)n2nc(C(F)(F)F)nc2n1", "group label": 1.0}
{"molecule": "COc1cccc(C=Cc2nc(=O)c3ccccc3o2)c1OC", "group label": 1.0}

(Q) Please tell me: is the molecule `COc1ccc2c(=O)cc(C(Cl)(Cl)Cl)oc2c1` at or over -0.7 in terms of PEE?
(A) 0.0

(Q) // inclusive: PEE at least -0.7? input: `Cc1cccc(Nc2nc(N)c3ccccc3n2)c1`
(A) 1.0

(Q) Quick check, PEE >= -0.7? `CCOC(=O)c1c(NC(=O)c2ccccc2)sc2c(O)c(CN(CC)CC)ccc12`
(A) 0.0

(Q) Answer whether PEE of `CCOc1ccc(-c2nonc2NC(=O)c2cccc(C)c2)cc1OCC` is greater than or equal to -0.7.
(A) 0.0

(Q) Is it the case that `Cc1ccc(Nc2nc(-c3ccccn3)cs2)cc1` has PEE reaching or exceeding -0.7?
(A) 1.0

(Q) Form field: PEE at least -0.7? Entry: `COc1ccc(C(=O)Nc2nonc2-c2ccc(OC)c(OC)c2)cc1Cl`
(A) 0.0

(Q) Identify whether the reported PEE of the following molecule is -0.7 or greater: `CN1CCN(c2ccc(Nc3c4ccccc4nc4ccccc34)cc2)CC1`
(A) 1.0

(Q) Tell me whether PEE is at least -0.7 here: `COc1ccc(C=C2SC(=N)N(c3ccccc3OC)C2=O)cc1`
(A) 1.0

(Q) Kindly determine if PEE recorded for `CCc1ccc(Nc2cc(C)c3ccc(O)cc3n2)cc1` is above or exactly -0.7.
(A) 0.0

(Q) Entry COc1ccc(C2=C(c3ccc(OC)cc3)C3(c4ccccc4)C(=O)C2(c2ccccc2)C2C(=O)N(c4ccc(C)cc4)C(=O)C23)cc1 (stereo not shown) : is its PEE no less than -0.7?
(A) 1.0

(Q) Hi, just wondering whether `Cc1cc(C)cc(Nc2cc(C)nc3nc(C(F)(F)F)nn23)c1` shows PEE of -0.7 or higher.
(A) 1.0

(Q) Decide: PEE of `Cc1ccc(-c2cc3c(SCC(=O)Nc4cc(C(F)(F)F)ccc4Cl)nccn3n2)cc1` >= -0.7?
(A) 1.0

----------
Test system: P. falciparum 3D7 trophozoites
Experiment: Metabolomic fingerprint profiling LC-MS
Format: cell-based, Plasmodium falciparum
Conditions: S2 Table Metabolomics; metabolite dAMP
reported metric: dAMP
Answers are plain numbers.

# annotated cases, reported dAMP shown
{"compound": "CN(C)CCCNc1c2ccccc2nc2ccccc12 [MMV000448]", "dAMP": -0.07728}
{"compound": "COc1ccccc1CNC(=O)CCn1c(=O)[nH]c2ccsc2c1=O [MMV019066]", "dAMP": -0.3418}
{"compound": "CCN1CCN(Cc2ccc(NC(=O)c3cc4ccc5cccnc5c4[nH]3)cc2)CC1 [MMV020548]", "dAMP": 0.7039}
{"compound": "CCN(CC)CCNc1ccnc2cc(Cl)ccc12 [MMV006087]", "dAMP": 1.732}
{"compound": "Oc1ccccc1CNCC12CC3CC(CC(C3)C1)C2 [MMV020788]", "dAMP": 0.309}

Count: 2. Required value per item: dAMP.
1. Cc1cc(Nc2ccc(C)c(Cl)c2)n2nc(C(F)(F)F)nc2n1 [MMV665874]
2. COc1ccc(-c2nc3cc(Cc4ccc5[nH]c(-c6ccc(OC)cc6)nc5c4)ccc3[nH]2)cc1 [MMV007384]

(A)
-0.05231
0.6855
